Biological target: T1, IL-2 receptor βγ complex (human, UniProt P14784 27-551; P31785 23-369)
T1 sequence (looked up) 1: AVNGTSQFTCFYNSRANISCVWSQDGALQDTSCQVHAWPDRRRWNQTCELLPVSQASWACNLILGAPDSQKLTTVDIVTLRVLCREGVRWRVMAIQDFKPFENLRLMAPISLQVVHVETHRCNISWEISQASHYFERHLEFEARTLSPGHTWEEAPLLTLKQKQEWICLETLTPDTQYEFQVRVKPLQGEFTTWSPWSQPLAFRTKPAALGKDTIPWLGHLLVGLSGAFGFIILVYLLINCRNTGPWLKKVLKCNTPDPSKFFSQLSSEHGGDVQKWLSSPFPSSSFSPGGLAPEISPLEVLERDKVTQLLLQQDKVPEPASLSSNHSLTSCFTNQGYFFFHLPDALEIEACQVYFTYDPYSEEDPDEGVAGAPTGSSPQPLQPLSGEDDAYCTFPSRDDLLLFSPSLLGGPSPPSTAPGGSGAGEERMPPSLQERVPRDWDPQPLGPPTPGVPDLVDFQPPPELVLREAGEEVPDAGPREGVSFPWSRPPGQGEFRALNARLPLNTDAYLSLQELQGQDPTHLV
T1 sequence (looked up) 2: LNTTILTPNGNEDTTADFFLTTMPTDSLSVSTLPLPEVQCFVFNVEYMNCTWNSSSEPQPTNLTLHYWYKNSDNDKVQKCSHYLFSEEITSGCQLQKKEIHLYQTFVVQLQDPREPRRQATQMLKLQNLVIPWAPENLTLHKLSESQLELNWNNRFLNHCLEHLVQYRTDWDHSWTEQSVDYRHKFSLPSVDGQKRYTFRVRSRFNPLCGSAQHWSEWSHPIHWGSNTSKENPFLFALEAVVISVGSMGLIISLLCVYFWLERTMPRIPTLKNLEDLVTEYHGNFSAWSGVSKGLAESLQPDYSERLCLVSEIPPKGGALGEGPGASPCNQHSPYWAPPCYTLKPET
Assay: cell-based or functional assay
Bridges are numbered along the chain shown (N, C = ends). Primed or numbered codes have the meaning given here. [ ]: non-standard residue; d: D form. Ygp(4) = Tyr with amino-capped PEG8 (O-(8x polyethylene glycol-amino)-tyrosine); Yn3(4) = Tyr with azide-capped PEG9 (O-(9x polyethylene glycol-azido)-tyrosine); Ygp = O-(8x polyethylene glycol-amino)-tyrosine (Tyr, amino-capped PEG8); Yn3 = O-(9x polyethylene glycol-azido)-tyrosine (Tyr, azide-capped PEG9); Ygp″ = O-(8x polyethylene glycol-amino)-tyrosine; Yn3″ = O-(9x polyethylene glycol-azido)-tyrosine; PEG16′ = 16x polyethylene glycol; PEG9′ = 9x polyethylene glycol; hSer = N[C@@H](CCO)C(=O)O; Nle = CCCC[C@H](N)C(=O)O
outcome.measure: Average EC50, pSTAT5 Assay (T cells) (nM)
Express your answer in nM, writing the number without its unit.

binder	Average EC50, pSTAT5 Assay (T cells) [nM]
CMP-136 (ligand, bridge N-37; not fully specified (bridges); ends not checked) [PEG9′]PLGLAG[PEG9′]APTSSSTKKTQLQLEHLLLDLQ[Nle]ILNGIENYKNPKLTR[Nle]L[hSer][Yn3]KF[Ygp][Nle]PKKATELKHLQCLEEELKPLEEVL[hSer]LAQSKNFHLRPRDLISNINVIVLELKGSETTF[hSer]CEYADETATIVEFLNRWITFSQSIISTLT	40.5
CMP-156 (ligand, linker N-19 via GPLGLAG‑PEG4) APTSSSTKKTQLQLEHLLEDLQ[Nle]ILNGINNYKNPKLTR[Nle]L[hSer][Yn3″]KF[Ygp″][Nle]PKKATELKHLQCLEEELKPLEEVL[hSer]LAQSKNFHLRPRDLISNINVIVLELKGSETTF[hSer]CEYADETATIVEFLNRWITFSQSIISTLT	86
CMP-162, MMP2 cleaved molecule (ligand, not fully specified; ends and bridges not checked; also: MMP2 cleaved, cleavage site and linker fragment on Lys23 side chain not given here) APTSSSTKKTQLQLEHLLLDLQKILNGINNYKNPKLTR[Nle]L[hSer][Yn3(4)]KF[Ygp(4)][Nle]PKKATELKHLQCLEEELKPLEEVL[hSer]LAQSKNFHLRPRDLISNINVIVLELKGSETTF[hSer]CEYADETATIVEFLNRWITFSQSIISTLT	0.758

Let us move to another entry and its Average EC50, pSTAT5 Assay (T cells).
## Input Identify Average EC50, pSTAT5 Assay (T cells) associated with the binder CMP-139 (ligand, bridge (positions not given here); not fully specified (bridges); ends not checked) [PEG16′]SGGPGPAGMKGLPGS[PEG16′]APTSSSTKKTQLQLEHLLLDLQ[Nle]ILNGIENYKNPKLTR[Nle]L[hSer][Yn3]KF[Ygp][Nle]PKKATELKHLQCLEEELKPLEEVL[hSer]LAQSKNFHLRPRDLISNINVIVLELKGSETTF[hSer]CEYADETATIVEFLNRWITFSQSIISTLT
## Output 21.3
